Target: T1, APC9096-AA
T1 chain: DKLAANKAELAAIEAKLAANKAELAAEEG
Assay: two-hybrid library CCmax;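 also: natural log of median RNA to DNA barcode read ratio; higher means stronger binding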
Conditions: mean of both orientations
experimental endpoint: interaction score

DKIAALEAKNAALEAEIAALKAKNAALEG [4H2447-AA] = -1.78
DKIAALEAEIAALKAKIAALEAENAALKG [4H2148-AA] = -1.24
DELAAIEAEAAALEAKAAALKAEAAALEG [APC232-AA] = -1.8
DEIAALKAKIAALEAKIAALEAKNAALEG [4H807-AA] = -1.75
